Test system: L929 cell lines (mouse fibroblasts)
Experiment: MTT reduction cytotoxicity assay
Type: cell-based
Settings: 20 μg/mL, 24 h
observable: mean percentage of viable cells ± SD (%)
Express your answer in %, writing the number without its unit.

Use the examples below as a reference point.
>>> print(df.to_string())
                                   compound                            observable  uom  obs_value
0  CC1CC(=O)OC(c2cccc3ccccc23)C1Cl (mixture of isomers) [6a]  mean percentage of viable cells ± SD    %          6
1  CC1CC(=O)OC(c2ccccc2)C1I (mixture of isomers) [10b]  mean percentage of viable cells ± SD    %          5

Next item in the queue.
Using the record for CC1CC(=O)OC(c2ccccc2)C1Cl (mixture of isomers) [6b] , report its mean percentage of viable cells ± SD.
4

The measurements presented in this section are drawn from paper PMC6572184.
